Tested on: IL-1-induced COX-2 expression
RUN_DESCRIPTION: IL-1-induced COX-2 expression in S112 human dermal fibroblasts (MIF-dependent event), flow cytometry
Type: cell-based
RUN_PARAMETERS: Homo sapiens, Fibroblast; compound 50 uM; IL-1 0.1 ng/ml, 6 hours; S112 cells; read-out: % inhibition of IL-1-induced COX2 expression (Effect)
Description: The activity of each compound was studied in a bioassay utilising MIF-dependent activation of human dermal fibroblasts. […] IL-1-induced COX-2 expression is therefore a MIF-dependent event. […] Cellular fluorescence was determined using a flow cytometer. At least 5000 events were counted for each reading, each of which was performed in duplicate, and the results expressed in mean fluorescence intensity (MFI) after subtraction of negative control-labelled cell fluorescence. […]
Classify by measured inhibition at 50 µM: 1 if it is equal to or exceeds 20%, 0 if it is smaller.

Illustrative cases are given below, each with its answer.
{"columns": ["MOLECULE", "CLASSIFICATION"],
 "data": [
  ["COc1ccc2cc(C)c(C(=O)O)cc2c1", 0],
  ["COC(=O)c1ccc2cc(OC)cc(C)c2c1", 1],
  ["O=S(=O)(O)c1ccc2cc(O)c(O)cc2c1 [Compound 6, 6,7-dihydroxynaphthalene-2-sulfonic acid]", 1],
  ["COc1ccc2cc(C)c(C(=O)O)cc2c1Br", 0],
  ["O=C(O)CCCCCOC(=O)c1ccc2cc(O)ccc2c1", 0]
]}

## Input Determine whether measured inhibition at 50 µM meets or exceeds 20% for COC(=O)c1ccc2ccc(OC)cc2c1 [Compound 44, Methyl 7-methoxy-2-naphthoate ester]
## Output 0

## Input Determine whether measured inhibition at 50 µM meets or exceeds 20% for COC(=O)c1ccc2ccc(O)c([N+](=O)[O-])c2c1
## Output 0

## Input Determine whether measured inhibition at 50 µM meets or exceeds 20% for O=C(O)c1ccc2cc3c(cc2c1)OCCO3
## Output 1

## Input Determine whether measured inhibition at 50 µM meets or exceeds 20% for CCCCCOS(=O)(=O)c1ccc2cc(O)c(O)cc2c1
## Output 1

## Input Determine whether measured inhibition at 50 µM meets or exceeds 20% for CCOC(=O)c1ccc2cc(SC(=O)N(C)C)ccc2c1OC
## Output 0
